TARGET_SYSTEM: hNav1.7 (Homo sapiens (Human), UniProt Q15858)
Sequence (Q15858 whole entry): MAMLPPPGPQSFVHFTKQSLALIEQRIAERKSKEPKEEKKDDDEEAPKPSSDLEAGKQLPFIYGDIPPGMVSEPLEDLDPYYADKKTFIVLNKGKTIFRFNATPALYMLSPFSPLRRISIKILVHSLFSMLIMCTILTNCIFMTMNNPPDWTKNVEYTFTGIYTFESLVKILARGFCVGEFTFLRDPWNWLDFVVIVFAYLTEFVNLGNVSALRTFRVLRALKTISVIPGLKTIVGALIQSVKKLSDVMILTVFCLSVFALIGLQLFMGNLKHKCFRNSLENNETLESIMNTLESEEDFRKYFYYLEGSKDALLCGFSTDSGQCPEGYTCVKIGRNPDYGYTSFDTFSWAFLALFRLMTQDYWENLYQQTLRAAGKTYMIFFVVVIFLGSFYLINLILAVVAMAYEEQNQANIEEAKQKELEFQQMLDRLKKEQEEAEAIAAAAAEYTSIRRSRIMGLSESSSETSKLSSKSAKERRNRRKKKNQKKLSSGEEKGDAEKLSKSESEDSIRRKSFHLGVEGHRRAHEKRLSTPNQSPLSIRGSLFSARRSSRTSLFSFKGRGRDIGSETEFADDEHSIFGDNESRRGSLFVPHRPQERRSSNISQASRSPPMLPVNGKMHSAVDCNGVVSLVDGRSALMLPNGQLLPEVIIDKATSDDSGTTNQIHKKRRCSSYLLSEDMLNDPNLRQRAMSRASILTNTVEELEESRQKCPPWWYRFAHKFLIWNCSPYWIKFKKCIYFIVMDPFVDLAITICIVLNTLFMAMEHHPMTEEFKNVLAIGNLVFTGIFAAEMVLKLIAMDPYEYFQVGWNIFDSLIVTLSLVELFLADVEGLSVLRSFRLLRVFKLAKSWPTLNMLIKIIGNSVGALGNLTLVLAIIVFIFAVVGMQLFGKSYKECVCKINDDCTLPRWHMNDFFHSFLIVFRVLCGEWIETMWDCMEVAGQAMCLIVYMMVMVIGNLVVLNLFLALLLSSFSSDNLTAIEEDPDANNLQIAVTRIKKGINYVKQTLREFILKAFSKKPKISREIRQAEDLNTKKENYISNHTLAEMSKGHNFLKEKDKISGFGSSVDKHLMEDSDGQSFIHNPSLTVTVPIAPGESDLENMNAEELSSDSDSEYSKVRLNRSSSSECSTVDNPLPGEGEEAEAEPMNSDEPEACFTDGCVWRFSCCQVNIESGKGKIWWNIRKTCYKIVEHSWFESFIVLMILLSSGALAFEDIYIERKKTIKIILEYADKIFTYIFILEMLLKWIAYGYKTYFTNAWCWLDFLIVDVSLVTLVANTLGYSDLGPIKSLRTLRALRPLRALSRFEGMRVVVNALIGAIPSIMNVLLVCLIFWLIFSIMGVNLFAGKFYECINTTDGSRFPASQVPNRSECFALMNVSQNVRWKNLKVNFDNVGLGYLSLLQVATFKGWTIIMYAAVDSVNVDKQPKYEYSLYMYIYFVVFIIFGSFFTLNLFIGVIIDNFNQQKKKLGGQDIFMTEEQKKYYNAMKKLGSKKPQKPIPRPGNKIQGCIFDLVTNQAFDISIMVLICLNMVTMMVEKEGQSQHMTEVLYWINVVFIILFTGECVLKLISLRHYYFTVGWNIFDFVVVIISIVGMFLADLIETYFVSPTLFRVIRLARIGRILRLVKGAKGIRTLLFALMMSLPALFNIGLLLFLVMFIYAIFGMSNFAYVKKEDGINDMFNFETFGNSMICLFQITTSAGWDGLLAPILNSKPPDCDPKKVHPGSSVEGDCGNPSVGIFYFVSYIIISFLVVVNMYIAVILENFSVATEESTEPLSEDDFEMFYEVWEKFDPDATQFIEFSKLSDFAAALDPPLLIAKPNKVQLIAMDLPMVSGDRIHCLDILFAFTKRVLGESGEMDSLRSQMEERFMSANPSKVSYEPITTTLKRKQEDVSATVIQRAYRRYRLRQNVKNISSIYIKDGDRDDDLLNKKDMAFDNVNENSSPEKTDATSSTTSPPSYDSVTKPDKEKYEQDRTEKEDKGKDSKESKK
Sequence (Q07699 19-218 partner): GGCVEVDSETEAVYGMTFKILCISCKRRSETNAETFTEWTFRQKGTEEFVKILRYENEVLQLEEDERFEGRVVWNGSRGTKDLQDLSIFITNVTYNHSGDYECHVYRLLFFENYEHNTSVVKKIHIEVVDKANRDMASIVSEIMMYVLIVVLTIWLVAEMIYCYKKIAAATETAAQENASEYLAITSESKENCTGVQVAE
TEST_DESCRIPTION: Nav1.7 potency, Patchliner automated patch clamp
Type: cell-based
MEASUREMENT_PARAMETERS: 7 Hz, automated patchclamp; read-out: Nav1.7 IC50 INWARD CURRENT BLOCK (nM) (7 Hz, Automated Patchclamp)
Experimental: The generation of a HEK 293F cell line stably expressing human Nav1.7/Navβ1 was achieved by co-transfecting human SCN9A and human SCN1B cDNAs, subcloned into plasmid vectors, utilizing standard transfection techniques. […] In some cases, the potency of compounds was measured using either the Patchliner automated patch clamp platform (Nanion) or manual patch clamp techniques. […]
MEASURE_NAME: IC50
Output should be the measured figure followed by the unit it is expressed in.

Query: Which IC50 reading was recorded for the compound "N[C@H](Cc1cccc(C(F)(F)F)c1)C(=O)NCc1nc2c(C(F)(F)F)cc(C(F)(F)F)cc2[nH]1" ?
Response: 15000 nM

* * *

TARGET_SYSTEM: hNav1.7 (Homo sapiens (Human), UniProt Q15858)
TEST_DESCRIPTION: Nav1.7 potency, Patchliner automated patch clamp
Assay type: cell-based
MEASUREMENT_PARAMETERS: slow inactivated state, automated patchclamp; read-out: Nav1.7 IC50 SLOW INACTIVATION BLOCK (nM) (Automated Patchclamp)
Procedure: The generation of a HEK 293F cell line stably expressing human Nav1.7/Navβ1 was achieved by co-transfecting human SCN9A and human SCN1B cDNAs, subcloned into plasmid vectors, utilizing standard transfection techniques. […] In some cases, the potency of compounds was measured using either the Patchliner automated patch clamp platform (Nanion) or manual patch clamp techniques. […]
MEASURE_NAME: IC50 (nM)
Give the number; nM is assumed, so skip it.

Query: Which IC50 reading was recorded for the molecule "N[C@H](Cc1cccc(C(F)(F)F)c1)C(=O)NCc1nc2c(C(F)(F)F)cc(C(F)(F)F)cc2[nH]1" ?
Response: 15000
